# Target entity: T1, 4H492-bA
# T1 chain: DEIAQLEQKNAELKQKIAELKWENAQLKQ
# Test: two-hybrid library CCNG1;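 note: natural log of median RNA to DNA barcode read ratio; higher means stronger binding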
For each of the binders below, state its interaction score.
Give bare numbers.

Q: Would you mind telling me what interaction score value was observed for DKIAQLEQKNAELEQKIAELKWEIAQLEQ [4H2473-bA] ?
Result: -1.09

# batch size: 2; output interaction score per entry
1. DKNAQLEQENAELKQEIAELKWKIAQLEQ [4H3277-bA]
2. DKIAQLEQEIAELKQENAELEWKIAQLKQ [4H2134-bA]

Result:
1: -0.379; 2: 0.114

# batch size: 8; output interaction score per entry
1. DKIAQLKQENAELEQEIAELEWENAQLKQ [4H2692-bA]
2. DKIAQLKQENAELEQENAELKWKIAQLEQ [4H2717-bA]
3. DEIAQLEQKNAELKQKIAELKWENAQLKQ [4H492-bA]
4. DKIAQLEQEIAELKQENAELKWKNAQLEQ [4H2143-bA]
5. DKIAQLKQEIAELEQENAELKWENAQLKQ [4H2588-bA]
6. DKIAQLKQKNAELKQKNAELEWEIAQLEQ [4H3057-bA]
7. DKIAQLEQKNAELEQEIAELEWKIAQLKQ [4H2438-bA]
8. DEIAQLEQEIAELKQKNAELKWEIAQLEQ [4H121-bA]

Result:
1. 2.26
2. -1.39
3. -0.566
4. -0.554
5. 0.34
6. -1.16
7. 1.59
8. -1.44

# batch size: 3; output interaction score per entry
1. DKIAQLKQKIAELKQKIAELEWENAQLEQ [4H2915-bA]
2. DKIAQLEQKNAELKQEIAELEWKNAQLEQ [4H2503-bA]
3. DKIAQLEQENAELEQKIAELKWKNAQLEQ [4H2223-bA]

Result:
1: -1.03; 2: -0.351; 3: 1.49

Data origin, for the record: paper PMC10397247
